# assay: gradient 5% acetonitrile 3 min, to 50% in 2 min, to 85% in 15 min, held 3 min, 100 µL/min
# assay_context: column: Zorbax Extend-C18 2.1 x 50 mm; eluents: water / acetonitrile, 0.1% formic acid
endpoint_name: RP-LC retention time (s)

compound	observed_value
CCn1nc(C)c(CCNC(=O)c2cc3c(=O)n(CCOC)ccc3nc2C)c1C	576
CC(C)c1cccc(N2C=C(C(=O)N3CCCCC3)S(=O)(=O)c3ccccc32)c1	1010
COc1ccc(NC(=O)C2CCN(S(=O)(=O)c3ccc4c(c3)NC(=O)CO4)CC2)cc1Cl	777

1 = COC(=O)c1c(-c2ccc(Cl)cc2)noc1N1CCN(C(=O)c2ccco2)CC1
2 = COc1ccc(C2C(C(=O)N3CCN(C)CC3)c3cc(OC)c(OC)cc3C(=O)N2C)cc1 (stereo not given)
Consider 1 and 2 . Which of these has its RP-LC retention time at a higher number? Response format: the label of the selected entry.
1

---

# assay: gradient 5% acetonitrile 3 min, to 50% in 2 min, to 85% in 15 min, held 3 min, 100 µL/min
# assay_context: column: Zorbax Extend-C18 2.1 x 50 mm; eluents: water / acetonitrile, 0.1% formic acid
endpoint_name: RP-LC retention time (s)

compound	observed_value
COc1ccccc1-c1nc2nccc(-c3ccco3)n2n1	836
COc1ccc(OC)c(S(=O)(=O)N2CCCC(C(=O)Nc3cccc(C)c3)C2)c1 (centres undefined)	952
O=C(NCCCN1CCCCC1)c1cc(=O)n2c(nc3ccccc32)s1	621
Cc1cc(NCc2ccccn2)n2ncc(-c3ccccc3)c2n1	706
CCCCN1C(=O)C(C)(C(=O)NCc2cc(F)cc(F)c2)Oc2cccnc21 (centres undefined)	1020

A = COc1ccc(-c2nnc(COc3ccc(NC(=O)c4cccnc4Cl)cc3)o2)cc1
B = Cc1ccc(-c2cc3c(=O)n(Cc4nc(-c5ccc(Cl)cc5)no4)ncn3n2)c(C)c1
# return whichever of A and B has the smaller RP-LC retention time Use the label to indicate which entry you chose.
A

P = O=C(NCc1ccccc1F)C1CCCN(c2nn3c(=O)c4c(nc3s2)CCCC4)C1 (centres undefined)
Q = CCn1c(=O)c2ccccc2n(Cc2nc(-c3ccc(C)c(C)c3)no2)c1=O
Hello, I am sorting some records. Could you say if P or Q has the smaller RP-LC retention time value? Reply with the label of the item you choose.
P

---

# assay: gradient 5% acetonitrile 3 min, to 50% in 2 min, to 85% in 15 min, held 3 min, 100 µL/min
# assay_context: column: Zorbax Extend-C18 2.1 x 50 mm; eluents: water / acetonitrile, 0.1% formic acid
endpoint_name: RP-LC retention time (s)

molecule	observed_value
CCNc1cc(N2CCCC(CCC(=O)N3CCOCC3)C2)ncn1 (centres undefined)	586
CCN1C(=O)COc2ccc(-c3csc(NC(=O)c4ccccc4OC)n3)cc21	1040
Cc1ccc(N2CCC(NS(=O)(=O)c3ccccc3F)C2=O)cc1 (centres undefined)	894

1 = CCCn1cc(CCNC(=O)c2ccc(C)c(F)c2)c2cccnc21
2 = CC(C)(C)c1csc(-c2csc(S(=O)(=O)Nc3ccc(F)c(Cl)c3)c2)n1
Field: entry with larger RP-LC retention time (options 1 / 2 ). Write down the label attached to your selection.
2
(2: 1310 s, 1: 815 s)

---

# assay: gradient 5% acetonitrile 3 min, to 50% in 2 min, to 85% in 15 min, held 3 min, 100 µL/min
# assay_context: column: Zorbax Extend-C18 2.1 x 50 mm; eluents: water / acetonitrile, 0.1% formic acid
endpoint_name: RP-LC retention time (s)

compound	observed_value
COc1ccc(CN2CC3(CCN(S(=O)(=O)c4cc(F)ccc4F)CC3)C2=O)cc1	924
CCCN(CC1CCOC1)C(=O)Nc1cccc(Br)c1 (centres undefined)	876
COc1ccc(N2CCN(C(=O)C3CCCN(c4nnc(-n5cccc5)s4)C3)CC2)cc1 (centres undefined)	829
CCC(=O)N1CCc2cc(N3CC(C(=O)NCc4ccc(C)cc4)CC3=O)ccc21 (centres undefined)	756
COCCn1cc(CCNC(=O)Nc2cccc(Br)c2)c2cccnc21	783

a = Cc1ccccc1-c1cn2ccn(-c3ccc4c(c3)CCC4)c(=O)c2n1
b = CCC(C)NC(=O)N1CCN(c2cc(-c3cccc(OC)c3)ncn2)CC1 (centres undefined)
c = COc1ccc(-c2ccnn2-c2ccc(SCc3ccc(C)cc3)nn2)cc1
Arrange these 3 compounds in increasing order of RP-LC retention time. In plain terms: list the labels in the order you were asked to.
b, a, c

a = CCOc1ccc(-c2csc(Cc3nc(-c4ccc(C)cc4)no3)n2)cc1
b = CCOC(=O)c1c(CN2CCCC2)n(C)c2cc(-c3ccncc3)c3c(c12)CN(C)CO3
Between the two listed entries a and b , which has its RP-LC retention time at the higher number? When you have decided, please share the label of that item.
a

---

# assay: gradient 5% acetonitrile 3 min, to 50% in 2 min, to 85% in 15 min, held 3 min, 100 µL/min
# assay_context: column: Zorbax Extend-C18 2.1 x 50 mm; eluents: water / acetonitrile, 0.1% formic acid
endpoint_name: RP-LC retention time (s)

compound	unit_symbol	RP-LC retention time
CCS(=O)(=O)N1N=C(c2cccs2)CC1c1ccc2nccnc2c1 (stereo not given)	s	724
COc1ccc(CN2C=C(C(=O)OCc3c(C)noc3C)C(C)=NS2(=O)=O)cc1	s	934
CCOC(=O)C1CCN(C(=O)c2nc(N3CCCC3)c3c(C)cc(C)nc3n2)CC1	s	631
Cc1c(Cl)cccc1-c1ccc(CNCC2CCCO2)o1 (stereo not given)	s	734
COCCNC(=O)CN1c2ccccc2NC2=C(C(=O)CC(C)(C)C2)C1c1ccccc1OC (stereo not given)	s	756
Cc1ccc(C(=O)NCCc2nc3cccnc3n2C)s1	s	596
COc1ccc2oc(-c3ccccc3)c(C(=O)Nc3nccs3)c2c1	s	931
O=C(NC1CCCCC1)C1CCN(c2cnc(N3CCCC3)nc2)CC1	s	649
COCCNC(=O)CCc1cn(Cc2ccccc2C)c2ccccc12	s	919
COCCN1C(=O)CCc2cc(NC(=O)Cc3ccc(Cl)cc3)ccc21	s	806

---

# assay: gradient 5% acetonitrile 3 min, to 50% in 2 min, to 85% in 15 min, held 3 min, 100 µL/min
# assay_context: column: Zorbax Extend-C18 2.1 x 50 mm; eluents: water / acetonitrile, 0.1% formic acid
endpoint_name: RP-LC retention time (s)

Examples from the recorded data:
molecule	unit_symbol	RP-LC retention time
O=C(Nc1nccnc1C(=O)NC1CC1)c1ccccc1	s	732
Cn1nc(C2CCCNC2)n(Cc2ccccc2)c1=O (stereo not given)	s	556
Cc1cccc(Cn2nc(-c3nc(C(C)(C)C)no3)ccc2=O)c1	s	1110
CC(C)c1cc(N2CCN(c3ccccn3)CC2)n2c(nc3ccccc32)c1C#N	s	695
COc1cc(-c2nnc(-c3ccc(C)c(S(=O)(=O)N4CCC(C)CC4)c3)o2)cc(OC)c1OC	s	1170

a = Cc1cc(NC(=O)Cn2nc3c4sc(N(C)C)nc4ncn3c2=O)ccc1Br
b = Cc1ccc(-c2nc(Nc3ccccc3F)sc2C)cc1
Returns the identifier with the smallest measured RP-LC retention time among a and b . // output: label of the selected item
a

P = O=C(NCCCn1ccnc1)C1CC(=O)N(CCc2c[nH]c3ccc(Cl)cc23)C1 (stereo not given)
Q = CCc1nn2c(CNS(=O)(=O)Cc3ccc(C)c(C)c3)c(-c3ccccc3)nc2s1
Could you check which of P and Q has a smaller value for RP-LC retention time? Write down the label of the entry you select.
P
(P: 603 s, Q: 1040 s)

1 = COC(=O)C1=C(CN2CCN(C)CC2)NC(=O)NC1c1ccc(Cl)cc1 (stereo not given)
2 = COc1ccc(NC(=O)c2cc3c(=O)n(CC(C)C)c4ccccc4n3n2)cc1F
Could you tell me which of these two has the smaller RP-LC retention time figure? First: 1 Second: 2 When you have decided, please share the label of that item.
1
(1: 604 s, 2: 1070 s)

---

# assay: gradient 5% acetonitrile 3 min, to 50% in 2 min, to 85% in 15 min, held 3 min, 100 µL/min
# assay_context: column: Zorbax Extend-C18 2.1 x 50 mm; eluents: water / acetonitrile, 0.1% formic acid
endpoint_name: RP-LC retention time (s)

molecule	observed_value
O=C(NCCn1nc(-c2ccc(F)cc2)ccc1=O)Nc1cccs1	692
CCCCNC(=O)C1CCC(=O)N(c2cc(OC)c(OC)c(OC)c2)C1c1ccc(OC)cc1 (stereo not given)	709
CCc1nnc2ccc(NC(C)C)nn12	718
Cc1ccc(Cl)cc1N1CCN(c2cc(C(=O)O)c3cc(NC(=O)C4CCCC4)ccc3n2)CC1	851
CCc1cccc(C)c1Nc1c(-c2ccc(OC)c(OC)c2)nc2cnccn12	805
CCn1cnc2cc(-c3noc(CNC(=O)c4ccco4)n3)ccc21	588
N#Cc1ccc(-c2nc(-c3ccc4c(c3)ncn4CCN3CCCCC3)no2)cc1	632
CCCc1cc(N2CCN(C(=O)c3cccs3)CC2)nc2nncn12	601
Cc1cc(C(=O)NC2CCCC2)c2cccc(Cl)c2n1	840
COC(=O)c1cc2n(n1)CC(C)(C(=O)NC1CCCC1)N(c1ccccc1C)C2=O (stereo not given)	801

Source of measurements: the METLIN SMRT retention time set (Domingo-Almenara et al. 2019)
